# Streptococcus Pheumoniae 5649: MIC values follow
Numbers only, in µg/mL.

| COMPOUND | VALUE_REPORTED |
| --- | --- |
| CC[C@H]1OC(=O)[C@H](C)C(=O)[C@H](C)[C@@H](O[C@@H]2O[C@H](C)C[C@H](N(C)C)[C@H]2O)[C@@]2(C)C[C@@H](C)C(=O)[C@H](C)[C@H]3N(CCNC(=O)c4ccccc4C=CCO2)C(=O)O[C@]13C [Example 21] | 2 |
| CC[C@H]1OC(=O)[C@H](C)[C@@H](O[C@H]2C[C@@](C)(OC)[C@@H](OC(C)=O)[C@H](C)O2)[C@H](C)[C@@H](O[C@@H]2O[C@H](C)C[C@H](N(C)C)[C@H]2O)[C@@]2(C)C[C@@H](C)C(=O)[C@H](C)[C@H]3N(CCNCc4cccc(c4)C=CCO2)C(=O)O[C@]13C [Example 10] | 8 |
| CC[C@H]1OC(=O)[C@H](C)[C@@H](O[C@H]2C[C@@](C)(OC)[C@@H](O)[C@H](C)O2)[C@H](C)[C@@H](O[C@@H]2O[C@H](C)C[C@H](N(C)C)[C@H]2O)[C@@]2(C)C[C@@H](C)C(=O)[C@H](C)[C@H]3N(CC=CCO2)C(=O)O[C@]13C [Example 14] | 16 |

Next up:
Form field - read-out: MIC; system: Streptococcus Pheumoniae 5649; submitted item: CC[C@H]1OC(=O)[C@H](C)[C@@H](O[C@H]2C[C@@](C)(OC)[C@@H](O)[C@H](C)O2)[C@H](C)[C@@H](O[C@@H]2O[C@H](C)C[C@H](N(C)C)[C@H]2O)[C@@]2(C)C[C@@H](C)C(=O)[C@H](C)[C@H]3N(CC(O)CCCCO2)C(=O)O[C@]13C (stereo partly shown) [Example 22] 16

---

# Staphylococcus aureus ATCC 6538P: MIC values follow
Give bare numbers, in µg/mL.

| SMILES_REPR | MIC (µg/mL) |
| --- | --- |
| CC[C@H]1OC(=O)[C@H](C)C(=O)[C@H](C)[C@@H](O[C@@H]2O[C@H](C)C[C@H](N(C)C)[C@H]2O)[C@@]2(C)C[C@@H](C)C(=O)[C@H](C)[C@H]3N(CCC=CCO2)C(=O)O[C@]13C | 0.78 |

Next up:
Record request: MIC value, item CC[C@H]1OC(=O)[C@H](C)C(=O)[C@H](C)[C@@H](O[C@@H]2O[C@H](C)C[C@H](N(C)C)[C@H]2O)[C@@]2(C)C[C@@H](C)C(=O)[C@H](C)[C@H]3N(CCOCc4ccccc4C=CCO2)C(=O)O[C@]13C 0.78

---

# Nocardia Asteroides ATCC9970: MIC values follow

Previously resolved entries follow.
| SMILES_REPR | TARGET_OR_SYSTEM | MIC |
| --- | --- | --- |
| CC[C@H]1OC(=O)[C@H](C)[C@@H](O[C@H]2C[C@@](C)(OC)[C@@H](O)[C@H](C)O2)[C@H](C)[C@@H](O[C@@H]2O[C@H](C)C[C@H](N(C)C)[C@H]2O)[C@@]2(C)C[C@@H](C)C(=O)[C@H](C)[C@H]3N(CCNC(=O)c4ccccc4C=CCO2)C(=O)O[C@]13C | Nocardia Asteroides ATCC9970 | 0.2 µg/mL |
| CC[C@H]1OC(=O)[C@H](C)C(=O)[C@H](C)[C@@H](O[C@@H]2O[C@H](C)C[C@H](N(C)C)[C@H]2O)[C@@]2(C)C[C@@H](C)C(=O)[C@H](C)[C@H]3N(CC=CCO2)C(=O)O[C@]13C | Nocardia Asteroides ATCC9970 | 0.39 µg/mL |
| CC[C@H]1OC(=O)[C@H](C)C(=O)[C@H](C)[C@@H](O[C@@H]2O[C@H](C)C[C@H](N(C)C)[C@H]2O)[C@@]2(C)C[C@@H](C)C(=O)[C@H](C)[C@H]3N(CCNC(=O)c4ccccc4C=CCO2)C(=O)O[C@]13C | Nocardia Asteroides ATCC9970 | 0.39 µg/mL |

Next up:
Record request: MIC value, item CC[C@H]1OC(=O)[C@H](C)C(=O)[C@H](C)[C@@H](O[C@@H]2O[C@H](C)C[C@H](N(C)C)[C@H]2O)[C@@]2(C)C[C@@H](C)C(=O)[C@H](C)[C@H]3N(CCC=CCO2)C(=O)O[C@]13C 0.78 µg/mL
